The reported numbers originate from patent US20210395239A1.

Answer each item with its documented IC20.
molecular target: hERG channel (Homo sapiens); construct: expressed in transfected cells; host or cells: CHO (Chinese hamster ovary); experiment: hERG channel inhibition assay (patch-clamp, CHOhERG cells); type: cell-based; details: human, CHO cells stably expressing hERG (CHOhERG); patch-clamp, CHOhERG cells
Sequence (Q12809 whole entry): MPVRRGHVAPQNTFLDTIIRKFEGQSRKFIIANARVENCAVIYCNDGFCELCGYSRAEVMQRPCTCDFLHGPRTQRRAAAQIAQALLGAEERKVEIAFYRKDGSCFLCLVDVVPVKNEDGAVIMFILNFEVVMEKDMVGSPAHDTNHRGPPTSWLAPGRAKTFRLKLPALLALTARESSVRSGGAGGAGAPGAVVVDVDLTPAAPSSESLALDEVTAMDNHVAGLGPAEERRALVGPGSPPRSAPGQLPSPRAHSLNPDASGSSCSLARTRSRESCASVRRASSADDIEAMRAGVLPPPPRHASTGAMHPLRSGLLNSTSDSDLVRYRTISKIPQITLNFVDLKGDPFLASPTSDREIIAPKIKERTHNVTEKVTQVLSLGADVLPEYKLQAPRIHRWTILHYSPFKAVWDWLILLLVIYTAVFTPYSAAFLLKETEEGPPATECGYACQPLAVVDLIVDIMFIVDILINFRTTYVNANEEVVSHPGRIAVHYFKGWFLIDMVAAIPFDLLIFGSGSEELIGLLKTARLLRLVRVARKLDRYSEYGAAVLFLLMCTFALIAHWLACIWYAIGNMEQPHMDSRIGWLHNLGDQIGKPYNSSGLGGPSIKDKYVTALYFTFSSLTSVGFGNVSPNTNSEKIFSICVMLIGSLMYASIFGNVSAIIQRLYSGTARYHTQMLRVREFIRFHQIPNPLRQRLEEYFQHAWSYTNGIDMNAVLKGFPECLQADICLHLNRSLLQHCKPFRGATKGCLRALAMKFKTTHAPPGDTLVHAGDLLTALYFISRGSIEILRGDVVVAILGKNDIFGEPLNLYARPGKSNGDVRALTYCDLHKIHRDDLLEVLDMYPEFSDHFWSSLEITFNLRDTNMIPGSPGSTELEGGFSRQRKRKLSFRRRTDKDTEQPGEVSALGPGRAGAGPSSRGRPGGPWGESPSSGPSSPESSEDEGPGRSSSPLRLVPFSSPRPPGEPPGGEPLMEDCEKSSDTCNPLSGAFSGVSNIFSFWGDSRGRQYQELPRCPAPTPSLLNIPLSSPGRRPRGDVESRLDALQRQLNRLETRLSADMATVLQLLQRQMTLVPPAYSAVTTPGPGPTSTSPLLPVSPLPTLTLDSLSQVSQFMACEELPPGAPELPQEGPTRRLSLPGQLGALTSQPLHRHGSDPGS
Give bare numbers, in µM.

### Prompt Entry CO[C@@H]1CN(c2ccc(N3CCN(C[C@H]4CN(c5ccc(C#N)n6ncc(F)c56)C[C@@H](C)O4)CC3)cn2)C[C@H]1N [Example 166] has what IC20?
### Response 8

Please state IC20 for every compound in the list that follows.
1. CO[C@H]1CN(c2nccc(N3CCN(C[C@H]4CN(c5ccc(C#N)c6nccnc56)C[C@@H](C)O4)CC3)n2)C[C@@H]1N [Example 99]
2. C[C@@H]1CN(c2ccc(C#N)c3ncccc23)C[C@H](CN2CCN(c3cccc(NC4CNC4)n3)CC2)O1 [Example 38]

### Response
1. 9
2. 5.5
